# TARGET SYSTEM: HiBit-BRG1 fusion protein (Homo sapiens, UniProt P51532)
# Construct: expressed in transfected cells
# Sequence (P51532 whole entry, the tested form may be a part): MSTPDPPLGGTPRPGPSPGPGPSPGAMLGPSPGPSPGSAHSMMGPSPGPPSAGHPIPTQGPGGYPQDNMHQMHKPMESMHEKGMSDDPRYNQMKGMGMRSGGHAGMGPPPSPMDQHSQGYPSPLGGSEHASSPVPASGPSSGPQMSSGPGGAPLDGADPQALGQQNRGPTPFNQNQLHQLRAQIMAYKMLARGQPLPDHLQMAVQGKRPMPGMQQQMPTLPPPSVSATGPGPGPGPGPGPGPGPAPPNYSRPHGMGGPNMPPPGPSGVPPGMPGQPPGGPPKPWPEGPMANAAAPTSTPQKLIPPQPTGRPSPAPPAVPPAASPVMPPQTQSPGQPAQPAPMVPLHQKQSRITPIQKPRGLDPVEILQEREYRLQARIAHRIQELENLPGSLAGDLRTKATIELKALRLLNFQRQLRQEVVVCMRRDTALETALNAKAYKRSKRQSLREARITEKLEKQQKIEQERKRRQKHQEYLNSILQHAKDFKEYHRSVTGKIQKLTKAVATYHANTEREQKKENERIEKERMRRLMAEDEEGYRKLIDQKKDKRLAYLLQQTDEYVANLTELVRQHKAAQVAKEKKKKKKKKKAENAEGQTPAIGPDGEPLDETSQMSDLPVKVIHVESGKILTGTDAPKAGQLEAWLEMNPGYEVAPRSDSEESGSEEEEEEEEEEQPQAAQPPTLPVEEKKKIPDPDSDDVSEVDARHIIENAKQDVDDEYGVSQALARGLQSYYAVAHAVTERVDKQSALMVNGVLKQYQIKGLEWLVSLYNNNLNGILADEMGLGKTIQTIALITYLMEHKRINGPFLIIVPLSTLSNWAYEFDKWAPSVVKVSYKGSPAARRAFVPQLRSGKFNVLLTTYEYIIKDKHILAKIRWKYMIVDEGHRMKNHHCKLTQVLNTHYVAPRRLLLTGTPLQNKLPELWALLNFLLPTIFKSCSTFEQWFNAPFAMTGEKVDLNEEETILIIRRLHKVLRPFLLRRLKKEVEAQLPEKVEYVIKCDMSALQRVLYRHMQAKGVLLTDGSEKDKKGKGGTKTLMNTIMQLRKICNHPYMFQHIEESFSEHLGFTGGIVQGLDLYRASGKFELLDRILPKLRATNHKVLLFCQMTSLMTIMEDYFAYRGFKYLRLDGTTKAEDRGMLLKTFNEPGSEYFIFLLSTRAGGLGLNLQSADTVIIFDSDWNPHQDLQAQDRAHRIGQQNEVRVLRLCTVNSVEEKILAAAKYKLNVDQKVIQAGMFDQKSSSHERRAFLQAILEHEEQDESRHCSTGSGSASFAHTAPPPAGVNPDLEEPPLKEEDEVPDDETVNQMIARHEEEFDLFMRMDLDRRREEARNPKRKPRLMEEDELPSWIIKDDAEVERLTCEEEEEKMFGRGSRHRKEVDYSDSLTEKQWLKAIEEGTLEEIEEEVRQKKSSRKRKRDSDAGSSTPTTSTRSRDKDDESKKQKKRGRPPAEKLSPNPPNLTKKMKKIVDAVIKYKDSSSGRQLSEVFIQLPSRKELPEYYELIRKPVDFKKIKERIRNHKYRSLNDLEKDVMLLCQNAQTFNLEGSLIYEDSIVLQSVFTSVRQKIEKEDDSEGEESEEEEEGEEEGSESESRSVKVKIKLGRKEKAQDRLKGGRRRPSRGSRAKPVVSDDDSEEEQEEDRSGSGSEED
# ASSAY SUMMARY: HiBiT-BRG1 cell-based degradation assay (Nano-Glo HiBiT Lytic Detection, 24 h)
# TEST SETTINGS: HeLa cell line expressing HiBit-BRG1 and LgBit, read-out: BRG1 HiBit Degradation Maximum (%)
MEASUREMENT NAME: Dmax

Dmax for Cc1ncsc1-c1ccc([C@H](C)NC(=O)[C@@H]2C[C@@H](O)CN2C(=O)[C@@H](c2cc(OCCN3CC4(CC(c5cc6cc(-c7ccccc7O)nnc6[nH]5)C4)C3)no2)C(C)C)cc1 (racemic) [Compound 54] is > 50%

Dmax for Cc1ncsc1-c1ccc([C@H](C)NC(=O)[C@@H]2C[C@@H](O)CN2C(=O)[C@@H](c2cc(C3CCN(C(=O)c4cc5cc(-c6ccccc6O)nnc5[nH]4)CC3)no2)C(C)C)cc1 (single isomer, unassigned) [Compound 203] is < 50%

Dmax for Cc1ncsc1-c1ccc([C@H](C)NC(=O)[C@@H]2C[C@@H](O)CN2C(=O)[C@H](c2cc(C3CCN(C(=O)[C@H]4CCc5[nH]c6nnc(-c7ccccc7O)cc6c5C4)CC3)no2)C(C)C)cc1 (single isomer, unassigned) [Compound 155] is < 50%

Dmax for Cc1ncsc1-c1ccc([C@H](C)NC(=O)C2C[C@@H](O)CN2C(=O)[C@@H](c2cc(OCCN3C[C@H]4C[C@@H](c5[nH]c6nnc(-c7ccccc7O)cc6c5C)C[C@H]4C3)no2)C(C)C)cc1 (single isomer, unassigned) [Compound 108] is > 75%

====

# TARGET SYSTEM: HiBit-BRG1 fusion protein (Homo sapiens, UniProt P51532)
# Construct: expressed in transfected cells
# ASSAY SUMMARY: HiBiT-BRG1 cell-based degradation assay (Nano-Glo HiBiT Lytic Detection, 24 h)
# TEST SETTINGS: HeLa cell line expressing HiBit-BRG1 and LgBit, read-out: BRG1 HiBit Degradation Maximum (%)
MEASUREMENT NAME: Dmax

Dmax for O=C1CCC(N2C(=O)c3ccc(N4CCN(CCC(=O)N5CC(c6cc7cc(-c8ccccc8O)nnc7[nH]6)C5)CC4)cc3C2=O)C(=O)N1 (stereo not drawn) is < 50%

Dmax for O=C1CCC(N2C(=O)c3cccc(OCCCCCCCC(=O)N4CC(c5cc6cc(-c7ccccc7O)nnc6[nH]5)C4)c3C2=O)C(=O)N1 (stereo not drawn) is < 50%

Dmax for Cc1ncsc1-c1ccc([C@H](C)NC(=O)[C@@H]2C[C@@H](O)CN2C(=O)[C@H](c2cc(N3CCN(C(=O)c4cc5cc(-c6ccccc6O)nnc5[nH]4)CC3)no2)C(C)C)cc1 (racemic) is < 50%

====

# TARGET SYSTEM: HiBit-BRM fusion protein (Homo sapiens)
# Construct: expressed in transfected cells
# Sequence (P51531 whole entry, the tested form may be a part): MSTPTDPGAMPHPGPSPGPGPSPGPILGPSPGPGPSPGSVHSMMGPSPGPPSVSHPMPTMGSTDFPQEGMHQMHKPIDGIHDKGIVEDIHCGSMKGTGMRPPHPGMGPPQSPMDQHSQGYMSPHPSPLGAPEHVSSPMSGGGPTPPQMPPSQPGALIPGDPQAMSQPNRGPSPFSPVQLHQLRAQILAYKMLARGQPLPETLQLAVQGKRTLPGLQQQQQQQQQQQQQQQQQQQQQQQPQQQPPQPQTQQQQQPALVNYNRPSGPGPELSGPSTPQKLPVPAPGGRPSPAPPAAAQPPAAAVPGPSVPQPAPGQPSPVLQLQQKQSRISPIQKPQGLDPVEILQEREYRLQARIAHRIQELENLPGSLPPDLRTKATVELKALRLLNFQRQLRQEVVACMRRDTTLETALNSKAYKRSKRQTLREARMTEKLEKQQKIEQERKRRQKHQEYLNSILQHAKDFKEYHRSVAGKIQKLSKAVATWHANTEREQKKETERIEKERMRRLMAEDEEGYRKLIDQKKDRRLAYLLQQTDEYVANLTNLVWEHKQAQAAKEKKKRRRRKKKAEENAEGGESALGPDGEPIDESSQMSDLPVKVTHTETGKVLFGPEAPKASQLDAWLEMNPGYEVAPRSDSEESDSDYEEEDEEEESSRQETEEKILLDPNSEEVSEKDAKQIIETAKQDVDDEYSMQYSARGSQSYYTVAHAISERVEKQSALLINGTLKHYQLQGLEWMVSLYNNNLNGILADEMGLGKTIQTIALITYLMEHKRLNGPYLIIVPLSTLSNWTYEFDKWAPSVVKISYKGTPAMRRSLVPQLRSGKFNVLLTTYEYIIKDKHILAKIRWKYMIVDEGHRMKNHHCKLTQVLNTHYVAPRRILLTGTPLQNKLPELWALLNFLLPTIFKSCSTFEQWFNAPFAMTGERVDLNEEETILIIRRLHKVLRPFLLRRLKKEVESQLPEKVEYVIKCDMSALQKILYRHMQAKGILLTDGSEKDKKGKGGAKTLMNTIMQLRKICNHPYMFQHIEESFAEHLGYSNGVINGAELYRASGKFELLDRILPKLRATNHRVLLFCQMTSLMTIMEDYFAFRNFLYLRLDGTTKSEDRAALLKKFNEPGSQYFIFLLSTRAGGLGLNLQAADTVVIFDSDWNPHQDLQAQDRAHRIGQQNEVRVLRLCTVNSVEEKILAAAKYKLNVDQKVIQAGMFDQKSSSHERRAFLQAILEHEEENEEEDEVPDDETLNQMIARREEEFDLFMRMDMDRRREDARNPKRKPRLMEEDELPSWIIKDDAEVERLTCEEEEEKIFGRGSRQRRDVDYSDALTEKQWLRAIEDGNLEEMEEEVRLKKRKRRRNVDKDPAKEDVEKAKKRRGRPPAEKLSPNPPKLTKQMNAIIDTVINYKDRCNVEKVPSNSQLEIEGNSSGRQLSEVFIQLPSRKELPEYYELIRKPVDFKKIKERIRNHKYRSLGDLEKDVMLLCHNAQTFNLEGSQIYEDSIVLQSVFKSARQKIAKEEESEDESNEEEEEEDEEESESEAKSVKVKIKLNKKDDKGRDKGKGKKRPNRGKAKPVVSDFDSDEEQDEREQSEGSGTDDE
# ASSAY SUMMARY: HiBiT-BRM cell-based degradation assay (Nano-Glo HiBiT Lytic Detection, 24 h)
# TEST SETTINGS: HeLa cell line expressing HiBiT-BRM, read-out: BRM HiBit Degradation IC50
Please provide measured DC50 for the entries that follow.

DC50 for Cc1ncsc1-c1ccc([C@H](C)NC(=O)[C@@H]2C[C@@H](O)CN2C(=O)[C@@H](c2cc(OCCN3CC[C@H](c4[nH]c5nnc(-c6ccccc6O)cc5c4C)C3)no2)C(C)C)cc1 (racemic) is < 10 nM

DC50 for Cc1ncsc1-c1ccc([C@H](C)NC(=O)[C@@H]2C[C@@H](O)CN2C(=O)[C@@H](c2cc(OCCN3CC(Oc4c[nH]c5nnc(-c6ccccc6O)cc45)C3)no2)C(C)C)cc1 (racemic) is > 100 nM

DC50 for Cc1ncsc1-c1ccc([C@H](C)NC(=O)[C@@H]2C[C@@H](O)CN2C(=O)[C@@H](c2cc(N3CCC(CN4CC(c5cc6cc(-c7ccccc7O)nnc6[nH]5)C4)CC3)no2)C(C)C)cc1 (racemic) is > 10 nM

DC50 for Cc1ncsc1-c1ccc([C@H](C)NC(=O)[C@@H]2C[C@@H](O)CN2C(=O)[C@@H](c2cc(N3CCC(C(=O)N4CCc5[nH]c6nnc(-c7ccccc7O)cc6c5[C@@H]4C)CC3)no2)C(C)C)cc1 (racemic) is > 100 nM
